B1: glmS ribozyme (parent)
chain: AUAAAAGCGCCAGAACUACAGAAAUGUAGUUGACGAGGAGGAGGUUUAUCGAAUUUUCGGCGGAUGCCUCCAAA

Variants of: B1
Test: self-cleavage kobs at 40 uM GlcN6P; higher = faster cleavage; RNA array
Details: with glucosamine-6-phosphate
Variants at the floor of the assay were thinned out.
readout-kind: self-cleavage kobs at 40 uM GlcN6P

{"columns": ["variant-descriptor", "self-cleavage kobs at 40 uM GlcN6P"],
 "data": [
  ["G13U A52U", "< 1e-05 s⁻¹"]
]}

Answer for every listed entry: what is its self-cleavage kobs at 40 uM GlcN6P? The entries follow.
1. C11U U65A
2. A6C G13A A36U U56G
3. G35C A64U
4. A6G G59A A64U
5. A52U A53U
6. U46C G63U C70A
7. G9A C68G

1. < 1e-05 s⁻¹
2. < 1e-05 s⁻¹
3. < 1e-05 s⁻¹
4. < 1e-05 s⁻¹
5. < 1e-05 s⁻¹
6. < 1e-05 s⁻¹
7. < 1e-05 s⁻¹

Answer for every listed entry: what is its self-cleavage kobs at 40 uM GlcN6P? The entries follow.
1. C8U A15U U30G G35C G41U
2. G43A C67G
3. A15U G59U
4. C34A G41U G62A
5. C16U U47A
6. A12U C71G
7. G7U A15G

1: < 1e-05 s⁻¹; 2: 2.87e-05 s⁻¹; 3: < 1e-05 s⁻¹; 4: < 1e-05 s⁻¹; 5: 0.0004 s⁻¹; 6: 0.000203 s⁻¹; 7: < 1e-05 s⁻¹

Answer for every listed entry: what is its self-cleavage kobs at 40 uM GlcN6P? The entries follow.
1. G40C C50U C58A C71G
2. A6G G44U
3. G35U G60C
4. G9U U31G G32C G62A

1: < 1e-05 s⁻¹; 2: < 1e-05 s⁻¹; 3: < 1e-05 s⁻¹; 4: < 1e-05 s⁻¹
